tested on: HCT-116 colon; assay: NCI-60 one-dose screen, 48 h; settings: 10 µM unless noted
Compounds without any hit were thinned out: in the full panel of roughly 83,000, 20% have a hit. Activity calls are given as the source filed them. Rule for the calls: active = growth percent below 10; inactive = the rest.
Pick one and only one: true for active, false for inactive

Observe how each entry below is paired with its result.
>>> discrete_label("O=c1nc(-c2ccccc2)c2cc(-c3ccc(N4CCCC4)nc3)ccc2[nH]1")
"false"
>>> discrete_label("CO[C@@]12C=C[C@@]34CCC(=O)N3c3ccccc3[C@@H](O1)C4C2")
"false"
>>> discrete_label("COc1ccc(NC(=O)c2ccc(Nc3ncnc4[nH]c(C)c(C)c34)cc2)cc1")
"false"
>>> discrete_label("CCOC(=O)c1c(C(F)(F)F)n([O-])c2ccc(Cl)cc2[n+]1=O")
"true"
>>> discrete_label("CCOC(=O)C1=C(C)n2nc(CC#N)c(C#N)c2NC1c1ccc(CC)cc1 (stereo not drawn)")
"false"

Then this compound:
Req: What classification did CN(CCC#N)C(=O)Nc1ccccc1 end up with in this test?
Resp: false

====

test system: M14 melanoma; test: NCI-60 one-dose screen, 48 h; settings: 10 µM unless noted
The panel holds about 83,000 compounds, 20% with a hit somewhere; the sample as a whole holds those more often. The source made the active and inactive calls. Rule for the calls: active = growth percent below 10; inactive = the rest.
Hi! Could you answer with just one of these? active, inactive

Would you please look over these solved cases?
>>> discrete_label("O=C(/C(=C/c1ccc([N+](=O)[O-])cc1)SCc1ccc(F)cc1)c1ccc(Cl)cc1")
"inactive"
>>> discrete_label("NCCN1CCNCC1")
"inactive"
>>> discrete_label("COc1ccc(C(=O)c2cc(OC)c(OC)c(OC)c2)cc1OC(=O)C(Cl)(Cl)Cl")
"active"
>>> discrete_label("COC(=O)c1ccc(NC(=O)CSc2nc(-c3ccc(F)cc3)nc3ccccc23)cc1")
"inactive"

With those in mind, consider the next compound.
Req: Given O=C(Nc1ccc(S(=O)(=O)NC2CCCCCC2)cc1)C(c1ccccc1)S(=O)(=O)c1ccc(F)cc1 (stereo not given) , state the outcome it received in this test.
Resp: active

====

tested on: CCRF-CEM leukemia; experiment: NCI-60 one-dose screen, 48 h; settings: 10 µM unless noted
This is part of a sample that, as a whole, favours compounds with a hit. Of some 83,000 tested, about 20% had one in any assay. Calls of active or inactive are those of the source. The calls were made as follows: active = growth percent below 10; inactive = the rest.
Tick one outcome: y = active, n = inactive

Illustrative cases are given below, each with its answer.
>>> discrete_label("CC(C)NS(=O)(=O)c1cccc(-c2ccc3c(=O)n(CCCN)c4c(c3c2)C(=O)c2ccccc2-4)c1")
"n"
>>> discrete_label("COc1ccc(-c2nc(C#N)c(NCC(c3ccc(Cl)cc3)N3CCCCC3)o2)cc1 (stereo not drawn)")
"n"
>>> discrete_label("COC(=O)/C=C/c1cc(OC)c2c(c1)[C@@H](C(=O)OC)[C@H](c1ccc(OC)c(OC)c1)O2")
"n"
>>> discrete_label("CC(C)NS(=O)(=O)c1cccc(-c2ccc3c4c(n(CCCN(C)C)c(=O)c3c2)-c2ccccc2C4=O)c1")
"y"
>>> discrete_label("COc1cccc(NC(=O)Nc2ccc(Nc3ncnc4[nH]c(C)c(C)c34)cc2)c1")
"n"
>>> discrete_label("[2H]c1cc2c(c([2H])c1F)/C(=C/c1[nH]c(C)c(C(=O)NCCN(CC)CC)c1C)C(=O)N2")
"n"
>>> discrete_label("C#CCOC(=O)[C@]1(C)CCC[C@]2(C)[C@H]3C[C@H]4C(C(C)C)=C[C@]3(CC[C@H]21)[C@@H]1C(=O)CCC(=O)[C@@H]14")
"n"
>>> discrete_label("O=c1c2ccccc2oc2ccc(OCCCCCCN3CCCCCC3)cc12")
"n"
>>> discrete_label("O=C(Nc1cc(=O)[nH]c(=O)[nH]1)C(Cl)Cl")
"n"
>>> discrete_label("CN1C(=O)c2cc(Cl)nc3c(NC(=O)c4cccc(Cl)c4)c(Cl)c(NC(=O)c4cccc(Cl)c4)c1c23")
"y"

Req: Hi, do you know how CC(=O)Nc1ccc2c(c1)Cc1cc(F)ccc1-2 came out in this test?
Resp: n

Req: Any idea what this test logged for Cc1ccc(C(=O)/C(=C/c2ccc([N+](=O)[O-])cc2)S(=O)Cc2ccccc2)cc1 (stereo not drawn) ?
Resp: y
